Source listed as PubChem BioAssay (NCI).

system: SF-539 CNS; test: NCI-60 one-dose screen, 48 h (100 = growth as untreated, 0 = no growth, -100 = all killed); conditions: 10 µM
Compounds without any hit were thinned out: in the full panel of roughly 83,000, 20% have a hit.
growth strictly under 90% means true; at 90% or over means false.

query: Consider the molecule COc1cc(-c2nc3ccc(C)cc3[nH]2)ccc1OCC(=O)N=Nc1c(O)[nH]c2ccccc12 . Is its growth strictly less than 90%?
result: true

query: Consider the molecule CCSc1nc2c([nH]1)c(=O)n(C)c(=S)n2C . Is its growth strictly less than 90%?
result: false

query: Consider the molecule COc1ccc(-c2ccc(-c3ccc(C(=N)N)c(F)c3)s2)cc1 . Is its growth strictly less than 90%?
result: true

query: Consider the molecule CCOc1nc(-c2ccccc2)cc2c(O)c(C(=O)NCCCO)[nH]c(=O)c12 . Is its growth strictly less than 90%?
result: false

query: Consider the molecule COc1ccc(C2=Cc3ccc(OC(C)=O)cc3OC2)cc1 . Is its growth strictly less than 90%?
result: true

query: Consider the molecule CC(=O)OCC(COC(C)=O)(COC(C)=O)COC(C)=O . Is its growth strictly less than 90%?
result: false

query: Consider the molecule O=[N+]([O-])c1ccc(S(=O)(=O)OCCCCOS(=O)(=O)c2ccc([N+](=O)[O-])cc2)cc1 . Is its growth strictly less than 90%?
result: false

query: Consider the molecule Cc1ccc2c3c(cccc13)-c1ccccc1C2=O . Is its growth strictly less than 90%?
result: false

query: Consider the molecule COc1cc(N=C2C(=O)N(Cc3ccccc3)c3ccccc32)cc(OC)c1OC . Is its growth strictly less than 90%?
result: false

---

Record form. Attribute: growth. Fill in for each entry.
Tested on: MDA-MB-435 melanoma
Assay: NCI-60 one-dose screen, 48 h (100 = growth as untreated, 0 = no growth, -100 = all killed)
Settings: 10 µM
Procedure: Growth inhibition of the MDA-MB-435 human Melanoma tumor cell line is measured as a screen for anti-cancer activity. Cells are grown in 96 well plates and exposed to the test compound for 48 hours. Compounds are tested at a single concentration, which is 10^-5 M for most compounds. The reported endpoint is percent growth (GI% or GIPRCNT), where numbers from 0 - 100% represent growth inhibition, and numbers from -100% - 0 represent cell death. […]
About 83,000 compounds went through this panel and 20% of them were active in at least one assay; those are over-represented in the sample as a whole.
Just the number in %, nothing appended.

query: Annotate the compound O=[N+]([O-])C1CC2C=CC1C2 (stereo not drawn) with its measured growth.
result: 92.7

query: Annotate the compound COC(=O)CCCCCCCCC(C)c1ccc(C(C)=O)cc1 (stereo not drawn) with its measured growth.
result: 97.1

query: Annotate the compound O=C1/C(=C/c2ccc(O)cc2)Cc2ccc(Cl)cc21 with its measured growth.
result: 78

---

test system: MCF7 breast; assay: NCI-60 one-dose screen, 48 h (100 = growth as untreated, 0 = no growth, -100 = all killed); details: 10 µM
About 83,000 compounds went through this panel and 20% of them were active in at least one assay; those are over-represented in the sample as a whole.
property.measured: growth (%)
Just the number in %, nothing appended.

query: Annotate the compound Cc1cccc2c(Nc3ccc(NS(C)(=O)=O)cc3)c3ccc([N+](=O)[O-])cc3nc12 with its measured growth.
result: 0.147

query: Annotate the compound COc1ccc(-c2cc(/C=C/C(=O)c3ccc(N)cc3)[nH]n2)cc1OC with its measured growth.
result: 14.9

query: Annotate the compound O=C1/C(=C/c2ccc(O)cc2)Cc2ccc(Cl)cc21 with its measured growth.
result: 58.8

query: Annotate the compound Cc1ccc(NS(=O)(=O)c2ccccc2)c(NS(=O)(=O)c2ccccc2)c1 with its measured growth.
result: 104

query: Annotate the compound Cc1ccc(NC(=O)/C=N/O)cc1C with its measured growth.
result: 61.5

query: Annotate the compound CCN(CC)c1ccc(/C=C/C2=[N+](C)c3ccccc3C2(C)C)c(C)c1 with its measured growth.
result: 3.87

---

Record form. Attribute: growth. Fill in for each entry.
tested on: RXF 393 renal; assay: NCI-60 one-dose screen, 48 h (100 = growth as untreated, 0 = no growth, -100 = all killed); details: 10 µM
The panel holds about 83,000 compounds, 20% with a hit somewhere; the sample as a whole holds those more often.
Just the number in %, nothing appended.

query: Annotate the molecule CCOC(=O)c1ccc(NC(=O)Nc2nncs2)cc1 with its measured growth.
result: -15.2

query: Annotate the molecule COc1ccc(C(C)=O)cc1N1C(=O)C2C(C1=O)C1(c3ccccc3)C(=O)C2(c2ccccc2)C(c2ccc(C)cc2)=C1c1ccc(C)cc1 (stereo not given) with its measured growth.
result: -4.28

query: Annotate the molecule Cc1noc(C)c1-c1ccc2nc(NC(=O)[C@H]3CCN(C#N)C3)cn2c1 with its measured growth.
result: 83.4

query: Annotate the molecule CC1=CC2OC34COC3CC(OC(=O)C(F)(F)F)C4(C)C2(C)CC1 (stereo not given) with its measured growth.
result: 93.9

query: Annotate the molecule COc1cc(-c2n/c(=C\c3c(O)[nH]c4ccccc34)cc3c2=Nc2ccccc2-3)cc(OC)c1OC with its measured growth.
result: -22.3

query: Annotate the molecule COc1ccc(-c2oncc2-c2cc(OC)c3c(c2)OCO3)cc1 with its measured growth.
result: 17.4

query: Annotate the molecule O=C(Nc1cccc(Cl)c1)Nc1cc2ncncc2cc1OCc1cccc(F)c1 with its measured growth.
result: 31.5

query: Annotate the molecule O=C(NC1CCN(Cc2ccccc2)CC1)c1cc(-c2ccncc2)nc2ccc(Cl)cc12 with its measured growth.
result: 37.8

query: Annotate the molecule COc1ccc(-c2nnc(COc3ccc(NC(=O)Nc4ccccc4)cc3F)o2)cc1 with its measured growth.
result: 94.5

query: Annotate the molecule CCCN(CCC)CCCNC(=O)c1cc2c(-c3ccc(OC)c(OC)c3)nn(C)c2s1 with its measured growth.
result: -2.45

---

test system: DU-145 prostate; assay: NCI-60 one-dose screen, 48 h; details: 10 µM
This is part of a sample that, as a whole, favours compounds with a hit. Of some 83,000 tested, about 20% had one in any assay. Active and inactive are the calls of the source. How the source made its calls: active means growth percent below 10; inactive means the rest.
# output must be one of TRUE = active, FALSE = inactive

query: Can you look up the reported call for N#Cc1ncc(-c2cc(F)ccc2F)c(NC2CCCCCC2)n1 for me?
result: FALSE

query: Can you look up the reported call for CC1(C)CCc2cc(-c3ccn(S(=O)(=O)c4ccc(Cl)cc4)n3)ccc2O1 for me?
result: FALSE

query: Can you look up the reported call for COc1ccc2nc(NC(=O)Nc3c(F)cccc3F)sc2c1 for me?
result: FALSE

query: Can you look up the reported call for Cc1ccc(S(=O)(=O)Nc2cccc3[nH]c(C(F)(F)F)nc23)cc1 for me?
result: FALSE

query: Can you look up the reported call for CCOC(=O)CNC(=O)Nc1ccc(Oc2ccc(NC(=O)NCC(=O)OCC)cc2)cc1 for me?
result: FALSE

query: Can you look up the reported call for CC(C)c1[nH]nc2c(NCc3ccc(-c4ccccn4)cc3)nc(SCCN)nc12 for me?
result: TRUE

---

test system: NCI-H226 lung; assay: NCI-60 one-dose screen, 48 h (100 = growth as untreated, 0 = no growth, -100 = all killed); settings: 10 µM
This is part of a sample that, as a whole, favours compounds with a hit. Of some 83,000 tested, about 20% had one in any assay.
Rule: true (1) for growth not less than 90%, false (0) for anything less.

query: Decide: is the reported value of growth for CCCCn1c(=O)[nH]c(N)c(C(c2ccc(Cl)cc2)c2c(N)[nH]c(=O)n(CCCC)c2=O)c1=O equal to or greater than 90%?
result: false (0)

query: Decide: is the reported value of growth for CC(C)C(C)C(N)C(=O)O (centres undefined) equal to or greater than 90%?
result: true (1)

query: Decide: is the reported value of growth for Cc1ccccc1C1=N[C@@H](Cc2ccccc2)C(=O)c2c(nc3ccccn23)N1 equal to or greater than 90%?
result: true (1)

query: Decide: is the reported value of growth for COc1cc([C@@H]2c3cc4c(cc3[C@H](SC(=N)N)[C@H]3COC(=O)[C@H]23)OCO4)cc(OC)c1OC equal to or greater than 90%?
result: false (0)

query: Decide: is the reported value of growth for CCOc1ccc(-n2cc(-c3ccc(N(C)C)cc3)[n+]3c2CCCCC3)cc1 equal to or greater than 90%?
result: false (0)

query: Decide: is the reported value of growth for COc1cc(Cn2c(-c3ccccc3)c(Cl)c3c2-c2oncc2CC3)cc(OC)c1 equal to or greater than 90%?
result: true (1)

query: Decide: is the reported value of growth for Cc1cc2cc3c(=O)[nH]c(=O)cc-3n(CC(O)C(O)C(O)CO)c2cc1C (centres undefined) equal to or greater than 90%?
result: true (1)

query: Decide: is the reported value of growth for CCCCCCCCCCSC(=N)N (tested in a mixture with another compound) equal to or greater than 90%?
result: true (1)

query: Decide: is the reported value of growth for CC(=O)c1ccc(NCn2nc(-c3ccc(Cl)cc3)oc2=S)cc1 equal to or greater than 90%?
result: true (1)

query: Decide: is the reported value of growth for CC(C)=C1CCC(C)C/C1=N\N=C(N)N (centres undefined) equal to or greater than 90%?
result: true (1)

query: Decide: is the reported value of growth for CNC(=S)Sc1ccc([N+](=O)[O-])cc1[N+](=O)[O-] equal to or greater than 90%?
result: false (0)

query: Decide: is the reported value of growth for COc1ccc(-c2csc(NC(=O)CO[N+](=O)[O-])n2)cc1 equal to or greater than 90%?
result: true (1)

query: Decide: is the reported value of growth for COc1ccc2oc(=O)cc(C(c3ccc[nH]3)c3ccc[nH]3)c2c1 equal to or greater than 90%?
result: false (0)

query: Decide: is the reported value of growth for Cc1c(C(=O)N[C@H](CO)Cc2ccccc2)[nH]c2ccc(Cl)cc2c1=O equal to or greater than 90%?
result: true (1)

query: Decide: is the reported value of growth for COc1ccc(-c2nnc(COc3ccc(NC(=O)Nc4ccccc4)cc3F)o2)cc1 equal to or greater than 90%?
result: true (1)

query: Decide: is the reported value of growth for COc1ccccc1S(=O)(=O)Nc1ccc2c(c1)CN(C)C(=O)N2 equal to or greater than 90%?
result: false (0)

query: Decide: is the reported value of growth for O=S(=O)(NC1c2ccccc2Oc2ccccc21)c1cc(Cl)ccc1Cl equal to or greater than 90%?
result: false (0)

query: Decide: is the reported value of growth for CCOC(=O)c1cc2c(n1Cc1cccc(OC)c1)-c1oncc1CC2 equal to or greater than 90%?
result: false (0)

query: Decide: is the reported value of growth for CC(=O)Nc1nc(C)c(C(=O)NNC=O)s1 equal to or greater than 90%?
result: true (1)

query: Decide: is the reported value of growth for COc1ccc2nc(NC(=O)Nc3c(F)cccc3F)sc2c1 equal to or greater than 90%?
result: true (1)

query: Decide: is the reported value of growth for COc1cc(Nc2ccnc(N3CCN(c4ccnc5cc(Cl)ccc45)CC3)n2)cc(OC)c1 equal to or greater than 90%?
result: false (0)

query: Decide: is the reported value of growth for CCOC(=O)CNC(=O)Nc1ccc(Oc2ccc(NC(=O)NCC(=O)OCC)cc2)cc1 equal to or greater than 90%?
result: true (1)

query: Decide: is the reported value of growth for Cc1cccc2c(Nc3ccc(NS(C)(=O)=O)cc3)c3ccc([N+](=O)[O-])cc3nc12 equal to or greater than 90%?
result: false (0)

query: Decide: is the reported value of growth for CCNC1(NC#N)CCCCC1 equal to or greater than 90%?
result: true (1)

query: Decide: is the reported value of growth for COc1ccc(C(=O)c2sc3nc(-c4cccs4)ccc3c2N)cc1OC equal to or greater than 90%?
result: false (0)

query: Decide: is the reported value of growth for CC(C)c1[nH]nc2c(NCc3ccc(-c4ccccn4)cc3)nc(SCCN)nc12 equal to or greater than 90%?
result: false (0)

query: Decide: is the reported value of growth for CCCCC(CC#N)(CCC)CCC equal to or greater than 90%?
result: true (1)

query: Decide: is the reported value of growth for COc1ccc(Cn2cc3c(c2-c2cc(OC)c(OC)c(OC)c2)CCc2cnoc2-3)cc1[N+](=O)[O-] equal to or greater than 90%?
result: false (0)

query: Decide: is the reported value of growth for COc1cc(C2c3cc4c(cc3C(O)C(CO)C2CO)OCO4)cc(OC)c1OC (centres undefined) equal to or greater than 90%?
result: false (0)

query: Decide: is the reported value of growth for CN1CCN(c2nc(-c3cccnc3)nc3sc4c(c23)CCCCCC4)CC1 equal to or greater than 90%?
result: true (1)

query: Decide: is the reported value of growth for N#CN1CC[C@H](C(=O)Nc2ncc(-c3ccccc3)s2)C1 equal to or greater than 90%?
result: false (0)

query: Decide: is the reported value of growth for Cc1ccc(C)c2c1sc1nc3n[nH]c(N)c3c(=N)n12 equal to or greater than 90%?
result: true (1)

query: Decide: is the reported value of growth for N#CC1C=Cc2c(ccc3ccccc23)N1C(=O)c1ccccc1 (centres undefined) equal to or greater than 90%?
result: false (0)
